B1: tRNA (parent)
chain: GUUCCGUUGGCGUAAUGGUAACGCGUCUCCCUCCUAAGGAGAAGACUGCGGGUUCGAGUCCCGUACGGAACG

- Variants of: B1
- Test Summary: yeast fitness relative to wild type (ratio to wild type); higher = fitter; tRNA-Arg(CCU), competitive growth, 37 C, YPD
This sample holds only a part of the variants without activity.
# if value of yeast fitness reaches 0.6, tag Y; if it stays below, tag N

Examples from the recorded data:
1. U26C A57U :: Y
2. C31U U47G G56C :: N
3. A21C C29U A57U C60U C62U C66U :: N

*Q* Given C27A C46A G63A , state whether its yeast fitness is at least 0.6.
*A* Y

*Q* Given G17A U28G A42G G68U , state whether its yeast fitness is at least 0.6.
*A* N

*Q* Given C30G C31G U64C A65C , state whether its yeast fitness is at least 0.6.
*A* N

*Q* Given U8C G12A G18A A45C , state whether its yeast fitness is at least 0.6.
*A* N

*Q* Given C11G U26C , state whether its yeast fitness is at least 0.6.
*A* N

*Q* Given U3A C5G C24A C30U A70G , state whether its yeast fitness is at least 0.6.
*A* N

*Q* Given C4U C5G C60A , state whether its yeast fitness is at least 0.6.
*A* N

*Q* Given U16A G50C C66G , state whether its yeast fitness is at least 0.6.
*A* N

*Q* Given U2C A43U G44C , state whether its yeast fitness is at least 0.6.
*A* N

*Q* Given A37C G68C , state whether its yeast fitness is at least 0.6.
*A* Y

*Q* Given U2A U8C A42U , state whether its yeast fitness is at least 0.6.
*A* Y

*Q* Given U16G C49U G63A , state whether its yeast fitness is at least 0.6.
*A* Y

*Q* Given G9A C49G , state whether its yeast fitness is at least 0.6.
*A* Y
